These entries and their values trace back to the NIST ThermoML archive (doi:10.1021/je020065c).

Details: 303.1 K; 101.33 kPa; Liquid; pycnometer
// reported mass density for each item listed
Kindly provide the numeric value in kg/m3 only, without the unit symbol.

Here is how some molecules turned out for mass density.
Smiles notation: ClCCCl
Observed: 1238.3
--
Smiles notation: CC(Cl)(Cl)Cl
Observed: 1320.94
--
Smiles notation: ClC(Cl)C(Cl)Cl
Observed: 1578.58
--
Smiles notation: CN1CCCC1=O
Observed: 1023.4
--
Smiles notation: ClC=C(Cl)Cl
Observed: 1451.2

Consider the molecule ClC(Cl)=C(Cl)Cl and give its recorded mass density.
1606.4
